Exercise: state measured log10 of IC50 for each of the molecules provided.
# System Name: GST-Xa-hAAK1 (Homo sapiens)
# Construct: made in house
# Protocol: AAK1 Kinase Assay
# Format: biochemical
# Condition Notes: IC50 (nM), ATP 22 μM; 3 hours at room temperature; Caliper LabChip 3000
Lab note - IC50 converted to log10 from values in nM.

State the recorded log10 of IC50 for this entry: COc1cc(NC(=O)[C@H](N)CC2CC2)c(F)cc1-c1cnco1 (stereo in doubt) [Example 95] 2.62

Now consider COc1cc(NC(=O)[C@@H]2CCCCN2)ccc1-c1cnco1 [Example 73] . 3.18

Now consider CC(C)C[C@@H](N)C(=O)Nc1ccc(-c2cnco2)c(F)c1 [Example 40] . 2.66

Now consider COc1cc(NC(=O)C2NCCCC2C(F)(F)F)ccc1-c1cnco1 (single isomer, unassigned) [Example 92] . 1.87

Now consider CCCC[C@@H](N)C(=O)Nc1ccc(-c2cnco2)c(OC)c1 [Example 52] . 2.72

Now consider COc1cc(NC(=O)C(N)CCC(F)(F)F)ccc1-c1cnco1 (stereo not drawn) [Example 76] . 2.04

Now consider COc1cc(NC(=O)[C@H](N)CC(C)C)ccc1-c1cnco1 [Example 1] . 1.56

Now consider COc1cc(NC(=O)C2CCCCN2C(=O)C(C)C)ccc1-c1cnco1 (stereo not drawn) [Example 80] . 2.80

Now consider COc1cc(NC(=O)[C@H](O)CC(C)C)ccc1-c1cnco1 [Example 34] . 2.31

Now consider COc1cc(NC(=O)C(N)CC(C)(C)F)ccc1-c1cnco1 (stereo not drawn) [Example 84] . 2.38

Now consider COc1cnccc1-c1ccc(NC(=O)[C@H](N)CC(C)C)cc1 [Example 44] . 2.15

Now consider COc1cc(NC(=O)[C@H]2C[C@H](OC)CN2)ccc1-c1cnco1 [Example 78] . 3.46

====

# System Name: GST-Xa-hAAK1 (Homo sapiens, UniProt Q2M2I8)
# Construct: made in house
# Sequence (Q2M2I8 whole entry): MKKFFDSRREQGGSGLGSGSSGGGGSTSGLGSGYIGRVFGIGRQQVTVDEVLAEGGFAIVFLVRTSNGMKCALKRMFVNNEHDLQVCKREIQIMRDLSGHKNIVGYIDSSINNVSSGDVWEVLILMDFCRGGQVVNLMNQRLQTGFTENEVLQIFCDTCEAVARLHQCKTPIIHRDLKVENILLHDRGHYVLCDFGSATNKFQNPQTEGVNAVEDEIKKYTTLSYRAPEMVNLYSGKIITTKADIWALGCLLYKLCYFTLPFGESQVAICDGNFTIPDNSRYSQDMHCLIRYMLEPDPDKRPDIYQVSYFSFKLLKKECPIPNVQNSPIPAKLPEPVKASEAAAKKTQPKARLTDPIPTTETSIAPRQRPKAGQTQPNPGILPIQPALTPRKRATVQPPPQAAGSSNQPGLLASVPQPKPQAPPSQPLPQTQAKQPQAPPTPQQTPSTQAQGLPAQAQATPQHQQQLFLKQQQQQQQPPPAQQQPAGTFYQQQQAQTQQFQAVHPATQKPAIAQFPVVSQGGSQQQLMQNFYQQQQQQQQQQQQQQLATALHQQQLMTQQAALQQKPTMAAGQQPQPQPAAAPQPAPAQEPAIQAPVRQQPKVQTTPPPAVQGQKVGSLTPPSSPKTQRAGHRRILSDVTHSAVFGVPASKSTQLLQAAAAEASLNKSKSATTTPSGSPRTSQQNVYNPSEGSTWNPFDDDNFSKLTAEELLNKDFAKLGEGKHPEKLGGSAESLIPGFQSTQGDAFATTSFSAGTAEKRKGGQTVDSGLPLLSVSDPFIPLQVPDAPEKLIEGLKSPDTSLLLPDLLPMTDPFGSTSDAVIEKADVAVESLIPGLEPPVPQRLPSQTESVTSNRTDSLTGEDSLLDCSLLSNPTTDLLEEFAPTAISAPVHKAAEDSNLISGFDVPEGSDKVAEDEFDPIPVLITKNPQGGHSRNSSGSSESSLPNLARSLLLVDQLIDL
# Protocol: AAK1 Kinase Assay
# Assay type: biochemical
# Condition Notes: IC50 (nM), ATP 22 μM; 3 hours at room temperature; Caliper LabChip 3000
So basically: is IC50 under 500 nM? Then Satisfied. Not under? Then Not satisfied.

Regarding COc1cc(NC(=O)[C@H]2CCCN2)ccc1-c1cnco1 [Example 2] , kindly confirm whether its IC50 is beneath 500 nM. Satisfied

Now consider COc1c(-c2cnco2)ccc(NC(=O)[C@H](N)CC(C)C)c1Cl [Example 28] . Not satisfied

Now consider COc1cc(NC(=O)C(CC(C)C)N[C@H]2CC[C@H](N)CC2)ccc1-c1cnco1 (some centres unmarked) [Example 31] . Not satisfied

Now consider COc1cc(NC(=O)[C@@H](CC(C)C)NCc2cccn2C)ccc1-c1cnco1 [Example 61] . Satisfied

Now consider CC(C)C[C@@H](N)C(=O)Nc1ccc(-c2cnco2)c(C#N)c1 [Example 108] . Satisfied

Now consider COc1cc(NC(=O)[C@H](N)CC(C)C)ccc1-c1ccnnc1 [Example 22] . Satisfied

Now consider CCC[C@H](N)C(=O)Nc1ccc(-c2cnco2)c(OC)c1 [Example 51] . Not satisfied

Now consider COc1cc(NC(=O)[C@H](N)CC(C)C)c(-c2nn[nH]n2)cc1-c1cnco1 [Example 102] . Satisfied

Now consider CCCC[C@H](N)C(=O)Nc1ccc(-c2cnco2)c(OC)c1 [Example 53] . Satisfied

Now consider COc1cc(NC(=O)[C@H](N)CO)ccc1-c1cnco1 [Example 75] . Not satisfied

Now consider COc1cc(NC(=O)C2CNCCN2C(C)C)ccc1-c1cnco1 (centres unmarked) [Example 86] . Satisfied

Now consider COc1cc(NC(=O)[C@@H](CC(C)C)NS(=O)(=O)c2ccccc2)ccc1-c1cnco1 [Example 71] . Satisfied

Now consider COc1cc(NC(=O)[C@@H](CC(C)C)NCc2ccc(C)cc2)ccc1-c1cnco1 [Example 63] . Not satisfied

Now consider CC(C)C[C@@H](N)C(=O)Nc1ccc(-c2cn[nH]c2)c(OC(F)F)c1 [Example 41] . Satisfied

Now consider COc1cc(NC(=O)[C@H](N)CC(C)C)c(-c2cnco2)cc1-c1cnco1 [Example 104] . Not satisfied

Now consider COc1cc(NC(=O)[C@@H](CC(C)C)NCc2ccccc2O)ccc1-c1cnco1 [Example 62] . Satisfied

Now consider COc1cc(NC(=O)[C@@H](N)CC(C)C)c(F)cc1-c1cnco1 [Example 99] . Not satisfied

====

# System Name: GST-Xa-hAAK1 (Homo sapiens, UniProt Q2M2I8)
# Construct: made in house
# Protocol: AAK1 Kinase Assay
# Assay type: biochemical
# Condition Notes: IC50 (nM), ATP 22 μM; 3 hours at room temperature; Caliper LabChip 3000
# Protocol: The assays were performed in U-bottom 384-well plates. […] The reactions were initiated by the combination of bacterially expressed, GST-Xa-hAAK1 with substrates and test compounds. […] The reactions were analyzed on the Caliper LabChip 3000 (Caliper, Hopkinton, Mass.) by electrophoretic separation of the fluorescent substrate and phosphorylated product. […] Compounds were dissolved at 10 mM in dimethylsulfoxide (DMSO) and evaluated at eleven concentrations. […]
Measured Quantity: IC50 (nM)
Enter your answer as a number in nM; do not include the unit.

API: value(readout= IC50, system= GST-Xa-hAAK1 (Homo sapiens, UniProt Q2M2I8), query= CC(=O)Nc1cc(-c2ccc(NC(=O)[C@H](N)CC(C)C)cc2)ccn1 [Example 118] ) 6

Now consider COc1cc(NC(=O)[C@H](N)CC(C)C)ccc1-n1cncn1 [Example 26] . 955

Now consider COc1cc(NC(=O)[C@H](N)CC(C)C)c(Cl)cc1-c1cnco1 [Example 27] . 54

====

Exercise: state measured IC50 for each of the compounds provided.
# System Name: GST-Xa-hAAK1 (Homo sapiens)
# Construct: made in house
# Protocol: AAK1 Kinase Assay
# Type: biochemical
# Condition Notes: IC50 (nM), ATP 22 μM; 3 hours at room temperature; Caliper LabChip 3000
Answers without a unit are incomplete; give the number and then its unit.

State the recorded IC50 for this entry: COc1cc(NC(=O)[C@H](N)CC(C)C)ccc1-c1nncs1 [Example 23] 5100 nM

Now consider COc1cc(NC(=O)[C@H](N)CC(C)C)ccc1-c1cn[nH]n1 [Example 19] . 56 nM

Now consider COc1cc(NC(=O)[C@H](N)CC(C)(C)C)c(F)cc1-c1cnco1 (stereo in doubt) [Example 97] . 630 nM
